Target: human FAP (Homo sapiens)
Construct: the biotinylated His, Avi tag, human FAP (26-760, FAP-H82Q6); His; Avi tag (biotinylated); purchased AcroBiosystems FAP-H82Q6
Sequence (Q12884 26-760): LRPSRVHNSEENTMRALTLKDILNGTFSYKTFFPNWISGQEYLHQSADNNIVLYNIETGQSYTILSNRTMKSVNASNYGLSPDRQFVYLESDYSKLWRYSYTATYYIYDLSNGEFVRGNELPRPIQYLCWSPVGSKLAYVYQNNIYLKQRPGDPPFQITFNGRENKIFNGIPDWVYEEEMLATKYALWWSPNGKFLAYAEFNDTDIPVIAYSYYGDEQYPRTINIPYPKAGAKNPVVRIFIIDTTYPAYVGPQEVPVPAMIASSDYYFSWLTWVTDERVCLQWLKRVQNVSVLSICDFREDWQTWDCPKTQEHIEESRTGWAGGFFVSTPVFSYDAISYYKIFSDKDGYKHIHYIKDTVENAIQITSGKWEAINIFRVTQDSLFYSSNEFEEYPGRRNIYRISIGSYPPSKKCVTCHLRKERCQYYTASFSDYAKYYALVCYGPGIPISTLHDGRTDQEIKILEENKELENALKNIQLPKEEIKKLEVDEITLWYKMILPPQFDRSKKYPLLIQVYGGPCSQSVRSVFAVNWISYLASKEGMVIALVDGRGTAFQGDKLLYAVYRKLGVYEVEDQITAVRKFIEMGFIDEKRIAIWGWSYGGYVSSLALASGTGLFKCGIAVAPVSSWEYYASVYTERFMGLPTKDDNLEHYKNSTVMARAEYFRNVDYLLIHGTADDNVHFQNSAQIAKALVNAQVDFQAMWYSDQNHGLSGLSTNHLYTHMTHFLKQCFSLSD
Assay: Enzymatic FAP competition assay (Z-Gly-Pro-AMC fluorescence), human FAP
Format: biochemical
Conditions: read-out: h. FAP, Enz., IC50
Protocol: Peptide potencies (IC50) to inhibit the FAP enzymatic activity were determined using a fluorescence-based assay towards the biotinylated His, Avi tag, human FAP (26-760, FAP-H82Q6) and the biotinylated His, Avi tag, mouse FAP (26-761, FAP-M82Q5). […] Samples were then incubated at 22-24° C. for 4 h before reading the fluorescence at excitation wavelength of 380 nm and emission wavelength of 460 nm using the Tecan Infinite® M1000 PRO. […]
pIC50: −log10 of the molar value. Structures can show the parent of a compound that is named as a salt. Starred links: 1 amine or outer side, 2 acyl side, 3 side chain; linkers in the order of their positions; H or OH if unused. Non-standard residues stand in square brackets, D forms with d. Residues, ends and D or L forms follow the SMILES beside them. Groups on a side chain read outwards from the residue. *: point of attachment. DOTA = O=C(O)CN1CCN(CC(=O)O)CCN(CC(=O)*)CCN(CC(=O)O)CC1; Phe(4-CH2NH2) = NCc1ccc(C[C@H](N)C(=O)O)cc1; Piperazinyl(4-CH2COOH) = O=C(O)CN1CCN(*)CC1; NMeF = CN[C@@H](Cc1ccccc1)C(=O)O; Aoc(2) = CCCCCC[C@H](N)C(=O)O; Ahp(2) = CCCCC[C@H](N)C(=O)O; AEEA = NCCOCCOCC(=O)O; CO = O=C([*:1])[*:2]

# compound, pIC50
rows = [
    ("CCCCC[C@@H]1NC(=O)[C@H](Cc2ccc(CNC(=O)CN3CCN(CC(=O)O)CCN(CC(=O)O)CCN(CC(=O)O)CC3)cc2)NC(=O)[C@H](Cc2ccccc2)N(C)C(=O)CNC(=O)CNC(=O)[C@H]2CCCN2C(=O)[C@H](CC(=O)O)NC(=O)[C@H](Cc2ccc(O)cc2)NC(=O)CNC(=O)[C@H](Cc2c[nH]c3ccccc23)NC1=O [Example B17, TFA salt] (cyclo([Ahp(2)]WGYD[dP]GG[NMeF][Phe(4-CH2NH2)](DOTA)))", 10.48),
    ("CCCCCC[C@@H]1NC(=O)[C@H](Cc2ccc(CNC(=O)COCCOCCN)cc2)NC(=O)[C@H](Cc2ccccc2)N(C)C(=O)CNC(=O)CNC(=O)[C@H]2CCCN2C(=O)[C@H](CC(=O)O)NC(=O)[C@H](CCCCNC(=O)N2CCN(CC(=O)O)CC2)NC(=O)CNC(=O)[C@H](Cc2c[nH]c3ccccc23)NC1=O [Example A1, TFA salt] (cyclo([Aoc(2)]WGK([CO-Piperazinyl(4-CH2COOH)])D[dP]GG[NMeF][Phe(4-CH2NH2)](AEEA)))", 11.05),
    ("CCCCC[C@@H]1NC(=O)[C@H](Cc2ccc(O)cc2)NC(=O)[C@H](Cc2ccccc2)N(C)C(=O)CNC(=O)CNC(=O)[C@H]2CCCN2C(=O)[C@H](CCC(=O)O)NC(=O)[C@H](Cc2ccc(O)cc2)NC(=O)CNC(=O)[C@H](Cc2c[nH]c3ccccc23)NC1=O [Example A71] (cyclo([Ahp(2)]WGYE[dP]GG[NMeF]Y))", 9.16),
]
